Overview of recorded Bliss excess for various compounds
System: UM-UC-3 (Bladder Carcinoma);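 note: after 72 h of two-drug dosing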
test.details: Bliss excess, mean over the matrix (fraction); higher = more synergy
readout.kind: Bliss excess

compound: Cc1cc2ncnn2cc1Nc1ncc2c(n1)n(C1CCOCC1)c(=O)n2C [AZD7648] + CCN(CCO)CCCOc1ccc2c(Nc3cc(CC(=O)Nc4cccc(F)c4)[nH]n3)ncnc2c1 [AZD2811] (first compound max 10 µM, 7x7, partner max 1 µM)
readout.kind: Bliss excess
recorded.value: 0.001
//
compound: C=CCn1c(=O)c2cnc(Nc3ccc(N4CCN(C)CC4)cc3)nc2n1-c1cccc(C(C)(C)O)n1 [AZD1775] + CCc1c2c(nc3ccc(O)cc13)-c1cc3c(c(=O)n1C2)COC(=O)[C@]3(O)CC [SN-38] (first compound max 1 µM, partner max 0.3 µM)
readout.kind: Bliss excess
recorded.value: -0.0431
//
compound: C[C@@H](c1ccc2nccn2c1)n1nnc2ncc(-c3cnn(C)c3)nc21 [Savolitinib] + Cc1c2c(nn1C)CSCc1cc(n(C)n1)CSc1cc(c3ccccc3c1)OCCCc1c(C(=O)O)n(C)c3c-2c(Cl)ccc13 [AZD5991] (first compound max 1 µM, 7x7, partner max 1 µM)
readout.kind: Bliss excess
recorded.value: -0.0161
//
compound: CCN(CCO)CCCOc1ccc2c(Nc3cc(CC(=O)Nc4cccc(F)c4)[nH]n3)ncnc2c1 [AZD2811] + C[C@@H]1COCCN1C2=NC(=NC(=C2)C3(CC3)[S@](=N)(=O)C)C4=C5C=CNC5=NC=C4 [AZD6738] (first compound max 1 µM, 7x7, partner max 10 µM)
readout.kind: Bliss excess
recorded.value: 0.0276
